Give pIC50 for every item shown.
Assay system: Bone morphogenetic protein 1 (Homo sapiens)
Sequence (P13497 whole entry, the tested form may be a part): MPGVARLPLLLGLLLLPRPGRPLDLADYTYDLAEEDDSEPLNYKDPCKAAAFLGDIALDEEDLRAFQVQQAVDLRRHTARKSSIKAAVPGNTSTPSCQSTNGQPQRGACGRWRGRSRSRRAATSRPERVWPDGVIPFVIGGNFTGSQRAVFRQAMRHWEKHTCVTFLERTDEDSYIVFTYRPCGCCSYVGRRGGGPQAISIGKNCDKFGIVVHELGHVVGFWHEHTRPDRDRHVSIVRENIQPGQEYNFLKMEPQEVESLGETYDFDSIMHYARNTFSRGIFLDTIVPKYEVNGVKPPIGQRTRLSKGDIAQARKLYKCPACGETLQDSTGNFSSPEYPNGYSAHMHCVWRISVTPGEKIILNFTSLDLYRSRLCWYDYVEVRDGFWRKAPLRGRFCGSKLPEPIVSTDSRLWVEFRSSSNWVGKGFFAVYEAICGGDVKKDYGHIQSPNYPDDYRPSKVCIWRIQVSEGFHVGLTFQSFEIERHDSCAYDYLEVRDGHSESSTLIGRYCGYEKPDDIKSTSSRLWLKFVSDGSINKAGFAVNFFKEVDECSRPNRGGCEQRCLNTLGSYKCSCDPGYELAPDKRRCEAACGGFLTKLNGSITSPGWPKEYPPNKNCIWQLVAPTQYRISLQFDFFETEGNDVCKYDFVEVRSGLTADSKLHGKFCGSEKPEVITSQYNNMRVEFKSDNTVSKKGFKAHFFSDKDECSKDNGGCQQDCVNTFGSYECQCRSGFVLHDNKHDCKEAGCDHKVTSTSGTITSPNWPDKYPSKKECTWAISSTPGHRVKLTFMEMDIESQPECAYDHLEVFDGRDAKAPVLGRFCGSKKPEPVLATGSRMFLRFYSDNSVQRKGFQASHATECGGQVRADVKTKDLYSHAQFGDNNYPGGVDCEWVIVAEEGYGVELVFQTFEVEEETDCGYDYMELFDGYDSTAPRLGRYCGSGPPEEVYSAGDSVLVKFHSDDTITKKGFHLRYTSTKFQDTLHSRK
Run description: Inhibition of C-terminal FLAG-6x-His epitope tagged and N-terminal human RAGE signal sequence tagged human BMP1 (23 to 721 amino acids) expressed in CHO-E1A cells pre-incubated for 10 mins before promyostatin peptide substrate addition and measured after 30 mins using 50 nM BMP1 by FRET based assay
Type: cell-based
pIC50: −log10 of the molar value.

State recorded pIC50 for all listed molecules.
1. CCCCC[C@H](CN(O)C=O)C(=O)NCNC(=O)c1cccc(-c2cccc(N(C)C)c2)c1
2. CCCCC[C@H](CN(O)C=O)C(=O)NCNC(=O)c1cccc(-c2ccc(F)c(OC)c2)c1
3. COc1cc(-c2cccc(C(=O)NCNC(=O)[C@H](CCc3ccccc3)CN(O)C=O)c2)c(OC)nn1

["> 6.60", "> 6.60", "> 6.60"]

State recorded pIC50 for all listed molecules.
1. CCCCC[C@H](CN(O)C=O)C(=O)NCNC(=O)c1cc(C(F)(F)F)cc(-c2ccccc2)n1
2. CCCCC[C@@H](C(=O)NCNC(=O)c1cccc(-c2ccc(C(=O)N[C@@H](CCC(=O)O)C(=O)O)cc2)n1)[C@@H](CC)N(O)C=O

1. > 6.60
2. > 6.60
